Cited source: the supplement of paper PMC6555819

Test system: PPARg:RXRa IVT, anti-PPARg (NR concentration 270 nM, RXRa partner concentration 90 nM)
Experiment: PBM binding z-score (relative to random genomic background probes); higher = stronger binding; sequences stand for … in GC…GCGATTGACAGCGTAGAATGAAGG
Label MET for high-side PBM binding z-score (at or above 2) and NOT MET for low-side PBM binding z-score (below it).

>>> category_label("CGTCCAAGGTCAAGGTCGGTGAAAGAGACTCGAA")
"MET"
>>> category_label("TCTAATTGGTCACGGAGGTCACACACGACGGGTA")
"MET"
>>> category_label("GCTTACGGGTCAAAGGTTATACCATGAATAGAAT")
"MET"
>>> category_label("CTGCCTAGGTCAGGGCCAGTATAGGAGGAACGTT")
"NOT MET"
>>> category_label("TGACAAAGTTCAAAGGTAACGTAAGTATCCACAC")
"MET"
>>> category_label("ATCTCTAGGTAACCGAGTTCAGTGAATGCCGAAC")
"MET"
>>> category_label("ACTAGCAGGCCAAGTTTGGGTCAGTCAAACAAAG")
"NOT MET"
>>> category_label("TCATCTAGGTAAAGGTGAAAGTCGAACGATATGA")
"MET"
>>> category_label("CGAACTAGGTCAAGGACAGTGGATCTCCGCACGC")
"MET"
>>> category_label("TCTAGTTGGTCACGGATGTCACACACGACGGGTA")
"MET"
>>> category_label("TTACCAAGGTGAATGGTCGTTGATGCACGCCTTG")
"MET"
>>> category_label("ACTAGCTGGCCAAGTTTGGGTCACTCAAACAAAG")
"NOT MET"
>>> category_label("TCTTGTCGATCAAAGGTTAAGAAAGCCGAAGCCT")
"MET"
>>> category_label("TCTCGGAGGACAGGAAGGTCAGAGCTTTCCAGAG")
"NOT MET"
>>> category_label("AGTCAAAGTTCATCTAGGTAACGTTAGATATGCT")
"MET"
>>> category_label("CAAACTAGGTCAAGGGTCAAAGTCGAGCCAACCA")
"MET"
>>> category_label("CCGACTGGGGCTTAAGGTTACCATAAGCCAGCCC")
"NOT MET"
>>> category_label("CCTAGTTGGTCAAGTTCACACACGCTATAGGTAC")
"NOT MET"
>>> category_label("TCTCGTAGGACACGAAGGTCAGAGCTTTCCAGAG")
"NOT MET"
>>> category_label("TCTATTAGTTGATTAGGTCAACCGAAACAGCGGA")
"MET"
>>> category_label("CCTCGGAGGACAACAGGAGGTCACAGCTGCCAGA")
"NOT MET"
>>> category_label("CCTACTGGGCCAAGGTCATTGGTCAGTCAAAGCA")
"MET"
>>> category_label("CTCGAAAGGACGGTTGAGGTGAGTATACGGATAA")
"NOT MET"
>>> category_label("CGAACTAGGTCAAGGATAGTGAATCTCCGCACGC")
"MET"
>>> category_label("GTACCAAGGTGAATACGTCGTTGATGAGTAGGCG")
"NOT MET"
>>> category_label("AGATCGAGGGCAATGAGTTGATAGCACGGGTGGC")
"MET"
>>> category_label("TCTAGTTGGTAACGGAGGTCACACACGACGGGTA")
"MET"
>>> category_label("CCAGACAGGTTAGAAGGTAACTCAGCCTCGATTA")
"NOT MET"
>>> category_label("TAGCCTATGTCATGGGCCAGTATACCACGCGAAC")
"NOT MET"
>>> category_label("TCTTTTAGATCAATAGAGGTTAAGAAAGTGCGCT")
"NOT MET"
>>> category_label("ACAGACAGGTGAGTGAAGGTAACTCATCTGGACG")
"NOT MET"
>>> category_label("CCTGCTAGGTCGATGGTCAGCTAAAGCAGCTCGC")
"NOT MET"
>>> category_label("TTACCAAGGTGAGCTGCGGTCGTTGATCCAACTC")
"NOT MET"
>>> category_label("AGAATGACGTTATTAAGATCAGGGAATTGCGGTC")
"NOT MET"
>>> category_label("CGTCCAAGGTCAATGCTAGGTCAGTGCAAGCATT")
"MET"
>>> category_label("CGTCCAAGCTCAGAGAGGTCAGTGAATGCCGAGT")
"NOT MET"
>>> category_label("GGAACGAGGGCGAGTTGATAGCAGAGTTTGATGG")
"NOT MET"
>>> category_label("CCGACTGGGGCATAAGGTTAACATAAGCCAGCCC")
"MET"
>>> category_label("CCAGACAGGTGAAAGATAACTCAGTCTGGTACGC")
"NOT MET"
>>> category_label("GTACCAAGGTGAATTGGTCGTTGATGAGTAGGCG")
"NOT MET"
>>> category_label("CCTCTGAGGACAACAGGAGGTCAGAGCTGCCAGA")
"NOT MET"
>>> category_label("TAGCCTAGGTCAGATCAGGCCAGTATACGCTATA")
"NOT MET"
>>> category_label("TAGCCTAGTTCATTGGGCCAGTATAGTACGCATC")
"NOT MET"
>>> category_label("AGTCAAAGATCACTAGGTAACGTAAGATTCAGCT")
"MET"
>>> category_label("TCGAGTAGGTTGGGGGCATTCAGAATGGCGTCGA")
"MET"
>>> category_label("GCATATATGTAATACAAGGTGAAAGTCCGATTGT")
"NOT MET"
>>> category_label("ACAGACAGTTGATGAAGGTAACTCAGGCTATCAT")
"NOT MET"
>>> category_label("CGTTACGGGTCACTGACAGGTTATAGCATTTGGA")
"MET"
>>> category_label("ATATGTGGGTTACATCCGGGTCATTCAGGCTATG")
"MET"
>>> category_label("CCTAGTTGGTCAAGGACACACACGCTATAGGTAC")
"NOT MET"
>>> category_label("TCGAGTAGGTTACCAATTGGGCATTCAGCTTTCT")
"MET"
